# CONDITION SET: in 1,4-dioxane, 280.65 K
MEASUREMENT LABEL: solubility (mole fraction)
# output: bare number, no unit

Exam item: // fetch solubility (mole fraction) given entry CC(C)(C)[C@H](O)[C@H](Cc1ccc(Cl)cc1)n1cncn1 (racemic)
Marked response: 0.0168

---

# CONDITION SET: in toluene, 303.15 K
MEASUREMENT LABEL: solubility (mole fraction)
# output: bare number, no unit

Exam item: // fetch solubility (mole fraction) given entry CC(C)(C)[C@H](O)[C@H](Cc1ccc(Cl)cc1)n1cncn1 (racemic)
Marked response: 0.0533

---

# CONDITION SET: in ethyl acetate, 285.65 K
MEASUREMENT LABEL: solubility (mole fraction)

Exam item: // fetch solubility (mole fraction) given entry CC(C)(C)[C@H](O)[C@H](Cc1ccc(Cl)cc1)n1cncn1 (racemic)
Marked response: 0.0118

---

# CONDITION SET: in ethyl acetate, 315.65 K
MEASUREMENT LABEL: solubility (mole fraction)
# output: bare number, no unit

Exam item: // fetch solubility (mole fraction) given entry CC(C)(C)[C@H](O)[C@H](Cc1ccc(Cl)cc1)n1cncn1 (racemic)
Marked response: 0.0497

---

# CONDITION SET: in acetonitrile, 278.15 K
MEASUREMENT LABEL: solubility (mole fraction)
# output: bare number, no unit

Exam item: // fetch solubility (mole fraction) given entry CC(C)(C)[C@H](O)[C@H](Cc1ccc(Cl)cc1)n1cncn1 (racemic)
Marked response: 0.00239

---

# CONDITION SET: in 1,4-dioxane, 283.15 K
MEASUREMENT LABEL: solubility (mole fraction)
# output: bare number, no unit

Exam item: // fetch solubility (mole fraction) given entry CC(C)(C)[C@H](O)[C@H](Cc1ccc(Cl)cc1)n1cncn1 (racemic)
Marked response: 0.0183

---

# CONDITION SET: in toluene, 283.15 K
MEASUREMENT LABEL: solubility (mole fraction)
# output: bare number, no unit

Exam item: // fetch solubility (mole fraction) given entry CC(C)(C)[C@H](O)[C@H](Cc1ccc(Cl)cc1)n1cncn1 (racemic)
Marked response: 0.0437

---

# CONDITION SET: in toluene, 313.15 K
MEASUREMENT LABEL: solubility (mole fraction)
# output: bare number, no unit

Exam item: // fetch solubility (mole fraction) given entry CC(C)(C)[C@H](O)[C@H](Cc1ccc(Cl)cc1)n1cncn1 (racemic)
Marked response: 0.0584

---

# CONDITION SET: in isopropanol, 295.65 K
MEASUREMENT LABEL: solubility (mole fraction)
# output: bare number, no unit

Exam item: // fetch solubility (mole fraction) given entry CC(C)(C)[C@H](O)[C@H](Cc1ccc(Cl)cc1)n1cncn1 (racemic)
Marked response: 0.0127

---

# CONDITION SET: in 1,4-dioxane, 278.15 K
MEASUREMENT LABEL: solubility (mole fraction)
# output: bare number, no unit

Exam item: // fetch solubility (mole fraction) given entry CC(C)(C)[C@H](O)[C@H](Cc1ccc(Cl)cc1)n1cncn1 (racemic)
Marked response: 0.0156

---

# CONDITION SET: in ethanol, 305.65 K
MEASUREMENT LABEL: solubility (mole fraction)

Exam item: // fetch solubility (mole fraction) given entry CC(C)(C)[C@H](O)[C@H](Cc1ccc(Cl)cc1)n1cncn1 (racemic)
Marked response: 0.0185
